Values were extracted from ChEMBL document CHEMBL2375249.

Give measured Ki for each item. Keep answers brief.
Answer as a quantity: numeral, then unit.

Record lookup: for 5-hydroxytryptamine receptor 1A (Rattus norvegicus), what Ki belongs to O=C1CC(c2c[nH]c3ccccc23)C(=O)N1CCN1CCC(c2c[nH]c3ccccc23)CC1 (racemic) ?
364 nM

Record lookup: for 5-hydroxytryptamine receptor 1A (Rattus norvegicus), what Ki belongs to O=C1CC(c2c[nH]c3ccccc23)C(=O)N1CCN1CC=C(c2c[nH]c3ccc(Cl)cc23)CC1 (racemic) ?
406 nM

Record lookup: for 5-hydroxytryptamine receptor 1A (Rattus norvegicus), what Ki belongs to O=C1CC(c2c[nH]c3ccccc23)C(=O)N1CCN1CC=C(c2c[nH]c3ccc(Br)cc23)CC1 (racemic) ?
324 nM

Record lookup: for 5-hydroxytryptamine receptor 1A (Rattus norvegicus), what Ki belongs to O=C1CC(c2c[nH]c3ccccc23)C(=O)N1CCCN1CC=C(c2c[nH]c3ccc(F)cc23)CC1 (racemic) ?
106 nM

Record lookup: for 5-hydroxytryptamine receptor 1A (Rattus norvegicus), what Ki belongs to O=C1CC(c2c[nH]c3ccccc23)C(=O)N1CCN1CC=C(c2c[nH]c3ccccc23)CC1 (racemic) ?
250 nM

Record lookup: for 5-hydroxytryptamine receptor 1A (Rattus norvegicus), what Ki belongs to O=C1CC(c2c[nH]c3ccccc23)C(=O)N1CCN1CC=C(c2c[nH]c3ccc(F)cc23)CC1 (racemic) ?
372 nM

Record lookup: for 5-hydroxytryptamine receptor 1A (Rattus norvegicus), what Ki belongs to COc1ccc2[nH]cc(C3CCN(CCCN4C(=O)CC(c5c[nH]c6ccccc56)C4=O)CC3)c2c1 (racemic) ?
32.6 nM

Record lookup: for 5-hydroxytryptamine receptor 1A (Rattus norvegicus), what Ki belongs to O=C1CC(c2c[nH]c3ccccc23)C(=O)N1CCCN1CC=C(c2c[nH]c3ccccc23)CC1 (racemic) ?
161 nM

Record lookup: for 5-hydroxytryptamine receptor 1A (Rattus norvegicus), what Ki belongs to O=C1CC(c2c[nH]c3ccccc23)C(=O)N1CCCCN1CCC(c2c[nH]c3ccc(F)cc23)CC1 (racemic) ?
7.5 nM

Record lookup: for 5-hydroxytryptamine receptor 1A (Rattus norvegicus), what Ki belongs to O=C1CC(c2c[nH]c3ccccc23)C(=O)N1CCCN1CCC(c2c[nH]c3ccc(F)cc23)CC1 (racemic) ?
122 nM

Record lookup: for 5-hydroxytryptamine receptor 1A (Rattus norvegicus), what Ki belongs to O=C1CC(c2c[nH]c3ccccc23)C(=O)N1CCCCN1CC=C(c2c[nH]c3ccc(Cl)cc23)CC1 (racemic) ?
68.7 nM

Record lookup: for 5-hydroxytryptamine receptor 1A (Rattus norvegicus), what Ki belongs to O=C1CC(c2c[nH]c3ccccc23)C(=O)N1CCCCN1CC=C(c2c[nH]c3ccc(F)cc23)CC1 (racemic) ?
17.6 nM

Record lookup: for 5-hydroxytryptamine receptor 1A (Rattus norvegicus), what Ki belongs to COc1ccc2[nH]cc(C3CCN(CCCCN4C(=O)CC(c5c[nH]c6ccccc56)C4=O)CC3)c2c1 (racemic) ?
2.2 nM

Record lookup: for 5-hydroxytryptamine receptor 1A (Rattus norvegicus), what Ki belongs to O=C1CC(c2c[nH]c3ccccc23)C(=O)N1CCCN1CCC(c2c[nH]c3ccccc23)CC1 (racemic) ?
68.5 nM

###

Give measured Ki for each item. Keep answers brief.
experimental.target: Sodium-dependent serotonin transporter (Rattus norvegicus)
Sequence (P31652 whole entry): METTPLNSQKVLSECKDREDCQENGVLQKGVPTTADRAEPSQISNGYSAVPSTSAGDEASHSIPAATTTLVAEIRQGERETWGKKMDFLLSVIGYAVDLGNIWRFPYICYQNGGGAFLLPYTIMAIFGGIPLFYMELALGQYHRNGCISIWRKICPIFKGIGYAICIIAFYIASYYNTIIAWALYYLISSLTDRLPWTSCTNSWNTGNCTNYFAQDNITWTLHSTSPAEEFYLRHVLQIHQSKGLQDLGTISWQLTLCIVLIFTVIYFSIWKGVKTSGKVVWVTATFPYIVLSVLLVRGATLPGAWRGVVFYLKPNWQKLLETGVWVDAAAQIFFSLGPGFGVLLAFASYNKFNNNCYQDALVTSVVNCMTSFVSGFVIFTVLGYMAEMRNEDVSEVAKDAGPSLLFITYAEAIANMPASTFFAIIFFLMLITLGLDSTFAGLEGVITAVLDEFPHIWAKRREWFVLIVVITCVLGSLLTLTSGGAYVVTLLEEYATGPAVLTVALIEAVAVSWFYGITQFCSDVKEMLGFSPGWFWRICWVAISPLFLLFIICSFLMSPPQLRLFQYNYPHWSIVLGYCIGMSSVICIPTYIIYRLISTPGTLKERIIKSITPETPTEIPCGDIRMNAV

Give its Ki value. Item: O=C1CC(c2c[nH]c3ccccc23)C(=O)N1CCN1CC=C(c2c[nH]c3ccc(Br)cc23)CC1 (racemic)
673 nM

Give its Ki value. Item: O=C1CC(c2c[nH]c3ccccc23)C(=O)N1CCCCN1CC=C(c2c[nH]c3ccccc23)CC1 (racemic)
11.3 nM

Give its Ki value. Item: O=C1CC(c2c[nH]c3ccccc23)C(=O)N1CCN1CC=C(c2c[nH]c3ccc(Cl)cc23)CC1 (racemic)
96.7 nM

Give its Ki value. Item: O=C1CC(c2c[nH]c3ccccc23)C(=O)N1CCCCN1CC=C(c2c[nH]c3ccc(Cl)cc23)CC1 (racemic)
74.4 nM

Give its Ki value. Item: COc1ccc2[nH]cc(C3CCN(CCCN4C(=O)CC(c5c[nH]c6ccccc56)C4=O)CC3)c2c1 (racemic)
221 nM

Give its Ki value. Item: O=C1CC(c2c[nH]c3ccccc23)C(=O)N1CCN1CCC(c2c[nH]c3ccccc23)CC1 (racemic)
56 nM

Give its Ki value. Item: O=C1CC(c2c[nH]c3ccccc23)C(=O)N1CCCN1CC=C(c2c[nH]c3ccccc23)CC1 (racemic)
4 nM

Give its Ki value. Item: O=C1CC(c2c[nH]c3ccccc23)C(=O)N1CCCN1CC=C(c2c[nH]c3ccc(F)cc23)CC1 (racemic)
5.2 nM

Give its Ki value. Item: O=C1CC(c2c[nH]c3ccccc23)C(=O)N1CCN1CC=C(c2c[nH]c3ccc(F)cc23)CC1 (racemic)
68.4 nM

Give its Ki value. Item: O=C1CC(c2c[nH]c3ccccc23)C(=O)N1CCCN1CCC(c2c[nH]c3ccccc23)CC1 (racemic)
354 nM

Give its Ki value. Item: O=C1CC(c2c[nH]c3ccccc23)C(=O)N1CCCCN1CCC(c2c[nH]c3ccc(F)cc23)CC1 (racemic)
505 nM

Give its Ki value. Item: O=C1CC(c2c[nH]c3ccccc23)C(=O)N1CCCN1CC=C(c2c[nH]c3ccc(Br)cc23)CC1 (racemic)
182 nM

Give its Ki value. Item: O=C1CC(c2c[nH]c3ccccc23)C(=O)N1CCCCN1CC=C(c2c[nH]c3ccc(Br)cc23)CC1 (racemic)
208 nM

Give its Ki value. Item: O=C1CC(c2c[nH]c3ccccc23)C(=O)N1CCN1CC=C(c2c[nH]c3ccccc23)CC1 (racemic)
33.8 nM

###

Tested on: Mus musculus
assay.procedure: Induction of hypothermia in CD1 mouse assessed as change in rectal body temperature at 2.5 mg/kg, ip administered 30 mins prior to test measured after 60 mins relative to control
Assay type: functional, organism-based
Parameters: dose 2.5 mg/kg
reported.metric: deltaT (°C)
# output: bare number, implied unit °C

Give its deltaT value. Item: COc1ccc2[nH]cc(C3=CCN(CCCCN4C(=O)CC(c5c[nH]c6ccccc56)C4=O)CC3)c2c1 (racemic)
-0.5

Give its deltaT value. Item: O=C1CC(c2c[nH]c3ccccc23)C(=O)N1CCCCN1CC=C(c2c[nH]c3ccccc23)CC1 (racemic)
-0.6

Give its deltaT value. Item: O=C1CC(c2c[nH]c3ccccc23)C(=O)N1CCCCN1CCC(c2c[nH]c3ccccc23)CC1 (racemic)
-1.5

Give its deltaT value. Item: O=C1CC(c2c[nH]c3ccccc23)C(=O)N1CCCCN1CC=C(c2c[nH]c3ccc(F)cc23)CC1 (racemic)
-0.7

###

System: Mus musculus
assay.procedure: Induction of hypothermia in CD1 mouse assessed as change in rectal body temperature at 5 mg/kg, ip administered 30 mins prior to test measured after 60 mins relative to control
Format: functional, organism-based
Parameters: dose 5 mg/kg
reported.metric: deltaT (°C)
# output: bare number, implied unit °C

Give its deltaT value. Item: COc1ccc2[nH]cc(C3=CCN(CCCCN4C(=O)CC(c5c[nH]c6ccccc56)C4=O)CC3)c2c1 (racemic)
-1.1

Give its deltaT value. Item: O=C1CC(c2c[nH]c3ccccc23)C(=O)N1CCCCN1CCC(c2c[nH]c3ccccc23)CC1 (racemic)
-2.8

Give its deltaT value. Item: O=C1CC(c2c[nH]c3ccccc23)C(=O)N1CCCCN1CC=C(c2c[nH]c3ccc(F)cc23)CC1 (racemic)
-1.5

Give its deltaT value. Item: O=C1CC(c2c[nH]c3ccccc23)C(=O)N1CCCCN1CC=C(c2c[nH]c3ccccc23)CC1 (racemic)
-1.4

###

Test system: Mus musculus
assay.procedure: Induction of hypothermia in CD1 mouse assessed as change in rectal body temperature at 2.5 mg/kg, ip administered 30 mins prior to test measured after 90 mins relative to control
Type: functional, organism-based
Design: dose 2.5 mg/kg
Give measured deltaT for each item. Keep answers brief.
# output: bare number, implied unit °C

Give its deltaT value. Item: O=C1CC(c2c[nH]c3ccccc23)C(=O)N1CCCCN1CC=C(c2c[nH]c3ccccc23)CC1 (racemic)
-0.9

Give its deltaT value. Item: COc1ccc2[nH]cc(C3=CCN(CCCCN4C(=O)CC(c5c[nH]c6ccccc56)C4=O)CC3)c2c1 (racemic)
-0.7

Give its deltaT value. Item: O=C1CC(c2c[nH]c3ccccc23)C(=O)N1CCCCN1CC=C(c2c[nH]c3ccc(F)cc23)CC1 (racemic)
-0.7

Give its deltaT value. Item: O=C1CC(c2c[nH]c3ccccc23)C(=O)N1CCCCN1CCC(c2c[nH]c3ccccc23)CC1 (racemic)
-1.3

###

# Ki per entry for UniProtKB P14416
# Sequence (P14416 whole entry): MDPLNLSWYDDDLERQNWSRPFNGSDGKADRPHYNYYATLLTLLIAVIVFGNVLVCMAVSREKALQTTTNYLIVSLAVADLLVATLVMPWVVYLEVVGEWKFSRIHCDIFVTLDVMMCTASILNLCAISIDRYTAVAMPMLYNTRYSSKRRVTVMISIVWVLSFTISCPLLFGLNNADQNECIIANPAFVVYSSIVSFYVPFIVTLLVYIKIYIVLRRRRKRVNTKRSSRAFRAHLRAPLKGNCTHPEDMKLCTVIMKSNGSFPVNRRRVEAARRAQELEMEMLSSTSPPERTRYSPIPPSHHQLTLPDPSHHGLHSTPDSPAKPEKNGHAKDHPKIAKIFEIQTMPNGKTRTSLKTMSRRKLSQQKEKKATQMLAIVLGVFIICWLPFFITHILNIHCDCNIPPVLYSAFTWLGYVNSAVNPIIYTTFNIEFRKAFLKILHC
# output: bare number, implied unit nM

Give its Ki value. Item: COc1ccc2[nH]cc(C3CCN(CCCN4C(=O)CC(c5c[nH]c6ccccc56)C4=O)CC3)c2c1 (racemic)
343

Give its Ki value. Item: COc1ccc2[nH]cc(C3CCN(CCCCN4C(=O)CC(c5c[nH]c6ccccc56)C4=O)CC3)c2c1 (racemic)
161

Give its Ki value. Item: O=C1CC(c2c[nH]c3ccccc23)C(=O)N1CCN1CCC(c2c[nH]c3ccc(F)cc23)CC1 (racemic)
80
